Molecular target: T1, Recombinant truncated human his-tag B7-H3 protein (amino acids 1-461 of SEQ ID NO:1 with a carboxy terminal … (human, UniProt Q5ZPR3 29-461))
T1 construct: also called his-tagged B7-H3 protein; recombinant human his-tagged B7-H3 protein
T1 sequence: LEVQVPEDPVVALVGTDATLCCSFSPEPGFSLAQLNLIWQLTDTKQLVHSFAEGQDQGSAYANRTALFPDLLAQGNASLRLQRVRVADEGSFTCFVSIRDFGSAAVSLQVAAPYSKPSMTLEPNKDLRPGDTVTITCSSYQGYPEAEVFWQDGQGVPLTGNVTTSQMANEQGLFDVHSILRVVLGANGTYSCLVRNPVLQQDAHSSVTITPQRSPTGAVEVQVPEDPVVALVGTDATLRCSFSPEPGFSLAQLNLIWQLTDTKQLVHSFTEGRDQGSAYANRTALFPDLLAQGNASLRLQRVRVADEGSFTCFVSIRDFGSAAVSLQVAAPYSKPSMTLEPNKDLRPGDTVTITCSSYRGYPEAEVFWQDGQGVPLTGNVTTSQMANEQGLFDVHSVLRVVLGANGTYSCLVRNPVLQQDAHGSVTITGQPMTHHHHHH
Assay: SPR (BIAcore 3000), antibody captured by anti-human Fc, his-tagged B7-H3 as analyte from 100 nM, 1:1 model

binder	binding result
B3-4F7 (antibody, V domains shown, It was captured by anti-human Fc) VH: QVQLVQSGAEVKKPGASVKVSCKASGYTFTSYGISWVRQAPGQGLEWMGWISAYNGNTNYAQKLQGRVTMTTDTSTSTAYMELRSLRSDDTAVYYCARDGYYGSGSHPWGQGTLVTVSS VL: QSVVTQPPSVSGAPGQRVTISCTGNSSNIGAGYDVHWYQQLPGTAPKLLIYGNSNRPSGIPDRFSGSKSGTSATLGITGLQTGDEADYYCGTWDSSLSAGVFGTGTKVTVL	binds
